B1: LMNB1 (parent)
chain: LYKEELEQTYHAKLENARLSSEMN

- Variants of: B1
- assay-notes: protein stability index of a GFP-peptide fusion (GPS, HEK-293T) (PSI 1-6); higher = more stable;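 note: lentivirally expressed fusions sorted by FACS into six bins by GFP to DsRed ratio, PSI derived from sequencing read proportions per bin multiplied by bin number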
- test-parameters: c terminus: a fixed tail appended
Quick rule for you: protein stability index at 3 or higher means YES, lower means NO.

LYKEELEQTEHAKLENARLSSEMN [Y10E] ... YES
LYKEELEQTYHAKLENARLSLEMN [S21L] ... NO
LYKEELEQTYLAKLENARLSSEMN [H11L] ... NO
LWKEELEQTYHAKLENARLSSEMN [Y2W] ... NO
LYKEELEQRYHAKLENARLSSEMN [T9R] ... YES
LYKEELEQTYHAFLENARLSSEMN [K13F] ... NO

Prompt: Does protein stability index meet or surpass 3 for LYKEELEQTYAAKLENARLSSEMN [H11A] ?
Response: YES

Prompt: Does protein stability index meet or surpass 3 for LYKEELEQTYHAKLENARQSSEMN [L19Q] ?
Response: YES
